Hello, the source for this data is patent US20130288372A1, in case you need it.

- Subject of test: T1, Human IL-23 (human, UniProt Q9NPF7 20-189; P29460 23-328)
- T1 construct: Heterodimer of p40 and p19; For the crystal it was secreted from insect cells from a bi-cistronic construct; also called interleukin 23; human recombinant IL-23
- T1 sequence (looked up) 1: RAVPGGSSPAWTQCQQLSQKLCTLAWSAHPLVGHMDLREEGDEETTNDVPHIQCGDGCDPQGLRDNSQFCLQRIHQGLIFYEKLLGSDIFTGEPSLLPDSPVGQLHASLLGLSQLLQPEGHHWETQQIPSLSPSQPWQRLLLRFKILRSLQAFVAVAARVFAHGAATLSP
- T1 sequence (looked up) 2: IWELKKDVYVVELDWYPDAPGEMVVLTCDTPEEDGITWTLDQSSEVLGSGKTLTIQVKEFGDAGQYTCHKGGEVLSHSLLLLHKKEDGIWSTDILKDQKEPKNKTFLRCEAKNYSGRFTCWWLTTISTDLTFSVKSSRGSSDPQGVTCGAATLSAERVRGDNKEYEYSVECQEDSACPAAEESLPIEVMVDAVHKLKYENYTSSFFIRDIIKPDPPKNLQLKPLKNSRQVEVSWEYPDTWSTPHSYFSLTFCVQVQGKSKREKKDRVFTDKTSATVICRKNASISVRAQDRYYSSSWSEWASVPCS
- Test name: SPR (Biacore T100), Adnectin captured by anti-His mAb, IL-23 injected, 25 C
pKd: −log10 of the molar value.
satisfied means recorded pKd is 8 or above; not satisfied means it is below 8.

Binder | Assigned class
Anti-IL-23 Adnectin 1454H11 (designed binder, 10Fn3-based Adnectin expressed in E. coli followed by a HIS6 tag; Fn3 domain is positions 3-96 of the entry) MGVSDVPRDLEVVAATPTSLLISWEHDYPYRRYYRITYGETGGNSPVQEFTVPREDSTATISGLKPGVDYTITVYAVTSSYKYDMQYSPISINYRTEIDKPSQHHHHHH | satisfied
Anti-IL-23 Adnectin 1454B08 (designed binder, 10Fn3-based Adnectin expressed in E. coli followed by a HIS6 tag; Fn3 domain is positions 3-96 of the entry; also called Parent) MGVSDVPRDLEVVAATPTSLLISWEHDYPYRRYYRITYGETGGNSPVQEFTVPKDVDTATISGLKPGVDYTITVYAVTSSYKYDMQYSPISINYRTEIDKPSQHHHHHH | satisfied
Anti-IL-23 Adnectin 1454F05 (designed binder, 10Fn3-based Adnectin expressed in E. coli followed by a HIS6 tag; Fn3 domain is positions 3-96 of the entry) MGVSDVPRDLEVVAATPTSLLISWYMHYPYSRYYRITYGETGGNSPVQEFTVPKQHDTATISGLKPGVDYTITVYAVTSSYKYDMQYSPISINYRTEIDKPSQHHHHHH | satisfied
Anti-IL-23 Adnectin 1241A05 (designed binder, 10Fn3-based Adnectin expressed in E. coli followed by a HIS6 tag; Fn3 domain is positions 3-96 of the entry; also called Clone 1241A05) MGVSDVPRDLEVVAATPTSLLISWNHNYSYYRYYRITYGETGGNSPVQEFTVPRGVATATISGLKPGVDYTITVYAVTSSYKYDMQYSPISINYRTEIDKPSQHHHHHH | not satisfied
Anti-IL-23 Adnectin 1454C03 (designed binder, 10Fn3-based Adnectin expressed in E. coli followed by a HIS6 tag; Fn3 domain is positions 3-96 of the entry) MGVSDVPRDLEVVAATPTSLLISWDMYYPYSRYYRITYGETGGNSPVQEFTVPKEYDTATISGLKPGVDYTITVYAVTSSYKYDMQYSPISINYRTEIDKPSQHHHHHH | satisfied
Anti-IL-23 Adnectin 1454B05 (designed binder, 10Fn3-based Adnectin expressed in E. coli followed by a HIS6 tag; Fn3 domain is positions 3-96 of the entry) MGVSDVPRDLEVVAATPTSLLISWYHDYPYRRYYRITYGETGGNSPVQEFTVPKDEETATISGLKPGVDYTITVYAVTSSYKYDMQYSPISINYRTEIDKPSQHHHHHH | satisfied
